testTarget: CAMKK1 kinase domain (CAMKK1-KD) (Homo sapiens)
Construct: The kinase domain (Gln124 to Lys411) was amplified using the primers; 6xHis (TEV-cleavable) (N, cleaved yes); made in house; host or cells: Escherichia coli BL21(DE3)-R3 co-expressing λ-phosphatase
test: Isothermal titration calorimetry (ITC) with CAMKK1-KD
Format: binding
conditionParameters: ITC at 20 °C, binding enthalpy
Readings of ΔH for the listed compounds
Please make sure the unit comes right after the number.

Here's what some known entries look like.
CC1(COc2ccc3c(c2)ncn3-c2ccc3cccc(N4CCC(N)CC4)c3n2)COC1 [Crenolanib (CP-868596), Crenolanib] : -10.9 kcal/mol
COc1cc(N2CCC(N3CCN(C)CC3)CC2)ccc1Nc1ncc(Cl)c(Nc2ccccc2P(C)(C)=O)n1 [AP26113] : -9.11 kcal/mol
CCS(=O)(=O)Nc1ccc2c(c1)/C(=C(/Nc1ccc(CN3CCCCC3)cc1)c1ccccc1)C(=O)N2 [Hesperadin] : -14.1 kcal/mol

Below: the item to evaluate.
Task item: Value lookup for ΔH; key = O=C(O)c1ccc(-c2c[nH]c3ncc(-c4ccccc4)cc23)cc1C1CCCC1 [GSK650394]
Reply: -20.5 kcal/mol

----------
Listed here are molecules together with their documented ΔTm at 10 µM.
testTarget: CAMKK1 kinase domain (CAMKK1-KD, Gln124-Lys411) (Homo sapiens)
Construct: The kinase domain (Gln124 to Lys411) was amplified using the primers; 6xHis (TEV-cleavable) (N, cleaved yes); made in house; host or cells: Escherichia coli BL21(DE3)-R3 co-expressing λ-phosphatase
test: Differential scanning fluorimetry (DSF) screen of a kinase inhibitor library against CAMKK1-KD
Format: binding
conditionParameters: DSF, 1 μM CAMKK1-KD, compound 10 µM; supplement; read-out: Mean ΔTm (°C)
Give the number; °C is assumed, so skip it.

Examples with answers:
Nc1nccc(Oc2ccc(NC(=O)c3c[nH]cc(-c4ccc(F)cc4)c3=O)cc2F)c1Cl : 4.9
CNC(=O)c1nn(C)c2c1C(C)(C)Cc1cnc(Nc3ccc(N4CCN(C)CC4)cc3)nc1-2 : 4.1
Cc1[nH]c(/C=C2\C(=O)Nc3ccc(S(=O)(=O)Cc4c(Cl)cccc4Cl)cc32)c(C)c1C(=O)N1CCC[C@@H]1CN1CCCC1 : 5.2
COc1cc2nccc(Oc3ccc(NC(=O)C4(C(=O)Nc5ccc(F)cc5)CC4)cc3)c2cc1OC [Cabozantinib malate (XL184), Cabozantinib malate] : 5.2
C=CC(=O)Nc1cc(Nc2nccc(-c3cn(C)c4ccccc34)n2)c(OC)cc1N(C)CCN(C)C : 2.6
CCOc1cc2ncc(C#N)c(Nc3ccc(F)c(Cl)c3)c2cc1NC(=O)/C=C/CN(C)C [Pelitinib (EKB-569), Pelitinib] : 3.2

We next turn to a different molecule, shown below.
Task item: Query: ΔTm at 10 µM; subject: `Cc1cc(Nc2nc(N[C@@H](C)c3ccc(F)cc3)c(C#N)cc2F)[nH]n1`
Reply: 4.4

----------
testTarget: CAMKK1 kinase domain (CAMKK1-KD, Gln124-Lys411) (Homo sapiens, UniProt Q8N5S9)
Construct: The kinase domain (Gln124 to Lys411) was amplified using the primers; 6xHis (TEV-cleavable) (N, cleaved yes); made in house; host or cells: Escherichia coli BL21(DE3)-R3 co-expressing λ-phosphatase
Sequence (Q8N5S9 124-411): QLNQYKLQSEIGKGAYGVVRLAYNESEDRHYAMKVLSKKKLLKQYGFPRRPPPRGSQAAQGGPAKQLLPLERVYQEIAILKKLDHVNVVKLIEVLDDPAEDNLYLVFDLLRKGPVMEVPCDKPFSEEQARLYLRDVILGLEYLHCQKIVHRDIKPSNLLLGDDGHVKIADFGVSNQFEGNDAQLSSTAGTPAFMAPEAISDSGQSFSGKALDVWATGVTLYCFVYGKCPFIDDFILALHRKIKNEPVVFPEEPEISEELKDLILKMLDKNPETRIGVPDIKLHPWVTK
test: Differential scanning fluorimetry (DSF) screen of a kinase inhibitor library against CAMKK1-KD
Assay type: binding
conditionParameters: DSF, 1 μM CAMKK1-KD, compound 10 µM; supplement
The entries below come with measured Mean ΔTm (°C) values attached.
Reply numerically in °C, unit not repeated.

CNC(=O)c1ccccc1Nc1nc(Nc2ccc(N3CCOCC3)cc2OC)ncc1Cl [TAE226 (NVP-TAE226)] : 3.0
CN(C)CCCn1cc(C2=C(c3c[nH]c4ccccc34)C(=O)NC2=O)c2ccccc21 [GF109203X] : 2.4
Cc1cc(N2CCOCC2)cc2[nH]c(-c3c(NC[C@@H](O)c4cccc(Cl)c4)cc[nH]c3=O)nc12 [BMS-536924] : 3.6
CN(c1ncccc1CNc1nc(Nc2ccc3c(c2)CC(=O)N3)ncc1C(F)(F)F)S(C)(=O)=O [PF-562271] : 5.6
O=c1[nH]c2ccc(Cl)cc2c(N[C@@H]2CN3CCC2CC3)c1-c1nc2ccccc2[nH]1 [CHIR-124] : 5.5

Task item: Item NC(=O)c1cnc(N[C@@H]2CCCC[C@@H]2N)nc1Nc1cccc(-n2nccn2)c1 [PRT062607 (P505-15)] with CAMKK1 kinase domain (CAMKK1-KD, Gln124-Lys411) (Homo sapiens, UniProt Q8N5S9) - Mean ΔTm (°C)?
Reply: 4.1

----------
testTarget: CAMKK1 kinase domain (CAMKK1-KD, Gln124-Lys411) (Homo sapiens, UniProt Q8N5S9)
Construct: The kinase domain (Gln124 to Lys411) was amplified using the primers; 6xHis (TEV-cleavable) (N, cleaved yes); made in house; host or cells: Escherichia coli BL21(DE3)-R3 co-expressing λ-phosphatase
test: Differential scanning fluorimetry (DSF) screen of a kinase inhibitor library against CAMKK1-KD
Type: binding
conditionParameters: DSF, 1 μM CAMKK1-KD, compound 10 µM; supplement; read-out: Mean ΔTm (°C)
measure: ΔTm at 10 µM (°C)
Return type: number; implicit unit °C.

C=CC(=O)Nc1cccc(Nc2nc(Nc3ccc(N4CCN(C(C)=O)CC4)cc3OC)ncc2C(F)(F)F)c1 [CO-1686 (AVL-301)] : 3.4
O=c1c(O)c(-c2ccc(O)c(O)c2)oc2cc(O)cc(O)c12 [Quercetin] : 4.9
Cc1cc(Nc2cc(N3CCN(C)CC3)nc(/C=C/c3ccccc3)n2)n[nH]1 [ENMD-2076] : 2.6

Would you kindly look at the next entry?
Task item: Endpoint output: ΔTm at 10 µM of Cc1cnc(Nc2ccc(OCCN3CCCC3)cc2)nc1Nc1cccc(S(=O)(=O)NC(C)(C)C)c1 [TG101348 (SAR302503)] . Value?
Reply: 3.4

----------
Recorded ΔTm at 10 µM values for a group of compounds are listed next.
testTarget: CAMKK1 kinase domain (CAMKK1-KD, Gln124-Lys411) (Homo sapiens)
Construct: The kinase domain (Gln124 to Lys411) was amplified using the primers; 6xHis (TEV-cleavable) (N, cleaved yes); made in house; host or cells: Escherichia coli BL21(DE3)-R3 co-expressing λ-phosphatase
test: Differential scanning fluorimetry (DSF) screen of a kinase inhibitor library against CAMKK1-KD
Assay type: binding
conditionParameters: DSF, 1 μM CAMKK1-KD, compound 10 µM; supplement; read-out: Mean ΔTm (°C)
Supply the numeric figure in °C, leaving out any unit text.

Task item: Entry `CCN1CCN(Cc2ccc(Nc3ncc(F)c(-c4cc(F)c5nc(C)n(C(C)C)c5c4)n3)nc2)CC1` has what ΔTm at 10 µM?
Reply: 6.7

----------
testTarget: CAMKK1 kinase domain (CAMKK1-KD, Gln124-Lys411) (Homo sapiens, UniProt Q8N5S9)
Construct: The kinase domain (Gln124 to Lys411) was amplified using the primers; 6xHis (TEV-cleavable) (N, cleaved yes); made in house; host or cells: Escherichia coli BL21(DE3)-R3 co-expressing λ-phosphatase
test: Differential scanning fluorimetry (DSF) screen of a kinase inhibitor library against CAMKK1-KD
Format: binding
conditionParameters: DSF, 1 μM CAMKK1-KD, compound 10 µM; supplement; read-out: Mean ΔTm (°C)
measure: ΔTm at 10 µM (°C)
# unit: °C | format: bare number

Consider the reported ΔTm at 10 µM for these molecules:
O=C(NCCCNc1nc(Nc2cccc(NC(=O)N3CCCC3)c2)ncc1I)c1cccs1 : 5.6
CO[C@@H](C(=O)N1Cc2n[nH]c(NC(=O)c3ccc(N4CCN(C)CC4)cc3)c2C1)c1ccccc1 : 3.8
Cc1cc(Nc2nc(N[C@@H](C)c3ncc(F)cn3)ncc2Cl)n[nH]1 : 3.8
N#CCNC(=O)c1ccc(-c2ccnc(Nc3ccc(N4CCOCC4)cc3)n2)cc1 : 4.7
Nc1nc(Nc2ccc(S(N)(=O)=O)cc2)nn1C(=O)c1c(F)cccc1F : 3.6

Task item: For the molecule `COc1cc2c(N3CCN(C(=O)Nc4ccc(OC(C)C)cc4)CC3)ncnc2cc1OCCCN1CCCCC1` , what ΔTm at 10 µM is on record?
Reply: 2.3

Task item: May I ask what ΔTm at 10 µM has been recorded for `Cc1nc(Nc2[nH]nc3c2CN(C(=O)N[C@H](CN(C)C)c2ccccc2)C3(C)C)c2sccc2n1` ?
Reply: 4.6
